meta.source: paper PMC5717258

Kindly state BAFP, CPM1 goldfish caged for each of the entries shown.
Experiment: Plasma bioaccumulation factor (BAFP), goldfish
Type: in vivo, goldfish (Carassius auratus)
Conditions: CPM1
One number for each entry, in L/kg.

Here are 5 compounds together with their reported answers.
>  <COMPOUND>
C[C@H](O)C(=O)Nc1c(I)c(C(=O)NC(CO)CO)c(I)c(C(=O)NC(CO)CO)c1I

>  <BAFP, CPM1 goldfish caged [L/kg]>
75

$$$$
>  <COMPOUND>
CN(C)CCCC1(c2ccc(F)cc2)OCc2cc(C#N)ccc21 (stereo not drawn)

>  <BAFP, CPM1 goldfish caged [L/kg]>
4

$$$$
>  <COMPOUND>
CCN(CC)C(=O)c1cccc(C)c1 [DEET, N,N-Diethyl-m-toluamide]

>  <BAFP, CPM1 goldfish caged [L/kg]>
4

$$$$
>  <COMPOUND>
CN(C)CCOC(c1ccccc1)c1ccccc1 [Diphenhydramine]

>  <BAFP, CPM1 goldfish caged [L/kg]>
7

$$$$
>  <COMPOUND>
COc1ccc(C(CN(C)C)C2(O)CCCCC2)cc1 (stereo not drawn)

>  <BAFP, CPM1 goldfish caged [L/kg]>
3

$$$$

Alright, here's another compound for you.
So what's the measured BAFP, CPM1 goldfish caged for this one? CN[C@H]1CC[C@@H](c2ccc(Cl)c(Cl)c2)c2ccccc21
50

----------
Details: Jordan Harbour carp 82, Nov 7, 2011, female, wet weight
For each of the compounds below, state its plasma concentration, JH-C 82.
Give bare numbers, in ng/g.

Some compounds with known plasma concentration, JH-C 82 results, for comparison:
>  <COMPOUND>
CC(C(=O)O)c1ccc(CC(C)(C)O)cc1 (centres unmarked) [2-Hydroxy-ibuprofen]

>  <plasma concentration, JH-C 82 [ng/g]>
17

$$$$
>  <COMPOUND>
COc1ccc(C(CN(C)C)C2(O)CCCCC2)cc1 (centres unmarked)

>  <plasma concentration, JH-C 82 [ng/g]>
0.040

$$$$

So what's the measured plasma concentration, JH-C 82 for this one? CCN(CC)C(=O)c1cccc(C)c1 [DEET, N,N-Diethyl-m-toluamide]
0.865

----------
Answer each item with its documented concentration at 21 days.
Assay: in vivo
Settings: goldfish (Carassius auratus), in vivo, plasma concentration, JH caged, Jordan Harbour reference site, 07-2014, pooled plasma, wet weight

The cases that follow already have their concentration at 21 days on record.
>  <COMPOUND>
Cn1c(=O)c2c(ncn2C)n(C)c1=O [Caffeine]

>  <concentration at 21 days>
< 3 ng/g

$$$$
>  <COMPOUND>
Cc1ccc(C)c(OCCCC(C)(C)C(=O)O)c1 [Gemfibrozil]

>  <concentration at 21 days>
< 0.3 ng/g

$$$$
>  <COMPOUND>
CN(C)CCC=C1c2ccccc2CCc2ccccc21 [Amitriptyline]

>  <concentration at 21 days>
< 0.06 ng/g

$$$$
>  <COMPOUND>
NCCC(Oc1ccc(C(F)(F)F)cc1)c1ccccc1 (centres unmarked) [Norfluoxetine]

>  <concentration at 21 days>
< 0.413 ng/g

$$$$

Moving on to another compound below.
Fill in the blank: the reported concentration at 21 days of COc1ccc(C(CN(C)C)C2(O)CCCCC2)cc1 (centres unmarked) [Venlafaxine] is ____.
< 0.08 ng/g

----------
Exercise: state measured plasma concentration, CPM wild-02 for each of the compounds provided.
Details: wild goldfish sample 02, 2012, wet weight
Answers are plain numbers, in ng/g.

>  <COMPOUND>
Cc1ccc(C)c(OCCCC(C)(C)C(=O)O)c1

>  <plasma concentration, CPM wild-02, ng/g>
0.387

$$$$
>  <COMPOUND>
COc1ccc(C(CN(C)C)C2(O)CCCCC2)cc1 (stereo not shown)

>  <plasma concentration, CPM wild-02, ng/g>
0.258

$$$$

Hello, I would appreciate it if you could give plasma concentration, CPM wild-02 for each entry below.
1. CN(C)CCC=C1c2ccccc2CC(O)c2ccccc21 (stereo not shown) [10-hydroxy-amitriptyline]
2. Cn1c(=O)c2c(ncn2C)n(C)c1=O
3. CN(C)CCC=C1c2ccccc2CCc2ccccc21
4. NCCC(Oc1ccc(C(F)(F)F)cc1)c1ccccc1 (stereo not shown)
5. CCN(CC)C(=O)c1cccc(C)c1 [DEET, N,N-Diethyl-m-toluamide]

1. 0.036
2. 1.525
3. 0.082
4. 0.654
5. 0.584

----------
Details: Jordan Harbour carp 54, Nov 7, 2011, male, wet weight
TEST_READOUT: plasma concentration, JH-C 54

The following molecules have reported results that may help.
>  <MOLECULE>
CC(C)Cc1ccc(C(C)C(=O)O)cc1 (centres unmarked)

>  <plasma concentration, JH-C 54>
< 3.18 ng/g

$$$$
>  <MOLECULE>
CCN(CC)C(=O)c1cccc(C)c1 [DEET, N,N-Diethyl-m-toluamide]

>  <plasma concentration, JH-C 54>
0.331 ng/g

$$$$
>  <MOLECULE>
COc1ccc(C(CN(C)C)C2(O)CCCCC2)cc1 (centres unmarked)

>  <plasma concentration, JH-C 54>
0.042 ng/g

$$$$
>  <MOLECULE>
Cn1c(=O)c2c(ncn2C)n(C)c1=O

>  <plasma concentration, JH-C 54>
< 3.18 ng/g

$$$$

# context switch: different molecule, same plasma concentration, JH-C 54
Can you share its plasma concentration, JH-C 54? I mean this molecule: CC(C(=O)O)c1ccc(CC(C)(C)O)cc1 (centres unmarked) [2-Hydroxy-ibuprofen]
< 16.9 ng/g

----------
Test: in vivo
Settings: goldfish (Carassius auratus), plasma, plasma concentration, CPM3 caged, CPM3, 07-2014, pooled plasma, wet weight
TEST_READOUT: concentration at 21 days (ng/g)
Answers are plain numbers, in ng/g.

Which measured concentration at 21 days value corresponds to Cc1ccc(C)c(OCCCC(C)(C)C(=O)O)c1 ?
0.154

----------
Assay: in vivo
Settings: goldfish (Carassius auratus), in vivo, caged goldfish plasma, range of concentrations
TEST_READOUT: concentration at 21 days

>  <COMPOUND>
CN(C)CCCC1(c2ccc(F)cc2)OCc2cc(C#N)ccc21 (stereo not shown)

>  <RESULT>
0.04 to 0.13 ng/g

$$$$
>  <COMPOUND>
Cc1cc(C)nc(NS(=O)(=O)c2ccc(N)cc2)n1

>  <RESULT>
0.06 to 0.17 ng/g

$$$$
>  <COMPOUND>
CC1CCc2cc(F)cc3c(=O)c(C(=O)O)cn1c23 (stereo not shown)

>  <RESULT>
0.16 to 1.37 ng/g

$$$$

We now examine a further compound.
Requested read-out: concentration at 21 days. Entry: C[C@H](O)C(=O)Nc1c(I)c(C(=O)NC(CO)CO)c(I)c(C(=O)NC(CO)CO)c1I
7.85 to 8.35 ng/g

----------
Please respond with reported concentration at 21 days for every item in the list.
Assay: in vivo
Conditions: goldfish (Carassius auratus), in vivo, plasma concentration, CPM1 caged
Numbers only, in ng/g.

These solved cases illustrate the format of a correct answer.
>  <COMPOUND>
CN(C)CCCC1(c2ccc(F)cc2)OCc2cc(C#N)ccc21 (centres unmarked)

>  <NUMBER>
0.145

$$$$
>  <COMPOUND>
CC1CCc2cc(F)cc3c(=O)c(C(=O)O)cn1c23 (centres unmarked)

>  <NUMBER>
1.1

$$$$
>  <COMPOUND>
C[C@H](O)C(=O)Nc1c(I)c(C(=O)NC(CO)CO)c(I)c(C(=O)NC(CO)CO)c1I

>  <NUMBER>
20.9

$$$$

Then this compound:
Bench note: what concentration at 21 days did C[C@]12CCC(=O)C=C1CC[C@@H]1[C@@H]2[C@@H](O)C[C@@]2(C)[C@H]1CC[C@]2(O)C(=O)CO [Hydrocortisone] show?
100

----------
Conditions: Table S7
Hi there, I'd appreciate the recorded Goldfish plasma concentration, this study (range) for every entry that follows.

Examples with answers:
>  <COMPOUND>
CCN(CC)C(=O)c1cccc(C)c1 [DEET, N,N-Diethyl-m-toluamide]

>  <RESULT>
0.23 to 0.58 ng/g

$$$$
>  <COMPOUND>
CN(C)CCC=C1c2ccccc2CCc2ccccc21 [Amitriptyline]

>  <RESULT>
0.03 to 0.09 ng/g

$$$$
>  <COMPOUND>
CN(C)CCC=C1c2ccccc2CC(O)c2ccccc21 (centres unmarked) [10-hydroxy-amitriptyline]

>  <RESULT>
0.01 to 0.06 ng/g

$$$$
>  <COMPOUND>
NCCC(Oc1ccc(C(F)(F)F)cc1)c1ccccc1 (centres unmarked) [Norfluoxetine]

>  <RESULT>
0.17 to 1.1 ng/g

$$$$

Consider the additional compound presented here.
Suppose we examine the compound Cc1ccc(C)c(OCCCC(C)(C)C(=O)O)c1 [Gemfibrozil] ; what Goldfish plasma concentration, this study (range) value has been reported?
0.15 to 0.86 ng/g
